Record: IC50 reported on SLK (Homo sapiens, UniProt Q9H2G2).
recorded.metric: IC50 (µM)

{"columns": ["sample.smiles", "censoring.sign", "result"],
 "data": [
  ["COc1ccccc1CNC(=O)Nc1ccc2cc1OCCOCCNc1ccn3ncc-2c3n1", "=", 17.1],
  ["Cc1cc(C(F)(F)F)ccc1CNC(=O)Nc1ccc2cc1OCCOCCNc1ccn3ncc-2c3n1", "=", 2.69],
  ["Cc1ccc(F)cc1CNC(=O)Nc1ccc2cc1OCCOCCNc1ccn3ncc-2c3n1", "=", 9.8],
  ["COc1ccc(CNC(=O)Nc2ccc3cc2OCCOCCNc2ccn4ncc-3c4n2)cc1F", "=", 11],
  ["C[C@H](NC(=O)Nc1ccc2cc1OCCOCCNc1ccn3ncc-2c3n1)c1ccccc1", ">", 20],
  ["Cc1cc(F)ccc1CNC(=O)Nc1ccc2cc1OCCOCCNc1ccn3ncc-2c3n1", "=", 3.13],
  ["Cc1cc(Cl)ccc1CNC(=O)Nc1ccc2cc1OCCOCCNc1ccn3ncc-2c3n1", "=", 3.43]
]}

---

Each entry below lists one item and its recorded ΔTm at 10 µM value.
- assayed.target: GSG2A (Homo sapiens, UniProt Q8TF76)
- Construct: purchased in-house DSF kinase panel (SGC-style construct names; the trailing letter is the construct ID)
- Sequence (Q8TF76 465-798): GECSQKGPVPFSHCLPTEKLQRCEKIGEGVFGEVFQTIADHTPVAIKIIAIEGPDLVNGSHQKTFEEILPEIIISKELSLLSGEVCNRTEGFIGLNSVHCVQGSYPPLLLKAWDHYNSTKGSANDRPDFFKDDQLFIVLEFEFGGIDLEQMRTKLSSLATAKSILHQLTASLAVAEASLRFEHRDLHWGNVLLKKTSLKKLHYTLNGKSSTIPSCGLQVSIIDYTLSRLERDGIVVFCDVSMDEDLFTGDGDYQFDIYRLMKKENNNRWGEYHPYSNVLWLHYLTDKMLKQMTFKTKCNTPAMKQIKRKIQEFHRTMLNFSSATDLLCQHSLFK
- experimental.details: DSF Tm panel
- Format: binding
- test.conditions: 10 μM compound

{"columns": ["sample.smiles", "unit.of.measurement", "ΔTm at 10 µM"],
 "data": [
  ["O=C(NCc1ccccc1C(F)(F)F)Nc1ccc2cc1OCCOCCNc1ccn3ncc-2c3n1", "°C", 0.7],
  ["Cc1cc(Br)ccc1CNC(=O)Nc1ccc2cc1OCCOCCNc1ccn3ncc-2c3n1", "°C", 0],
  ["O=C(NCc1ccc(C(F)(F)F)cc1)Nc1ccc2cc1OCCOCCNc1ccn3ncc-2c3n1", "°C", 0.9],
  ["COc1ccc(CNC(=O)Nc2ccc3cc2OCCOCCNc2ccn4ncc-3c4n2)cc1F", "°C", 1],
  ["Cc1cc(Cl)ccc1CNC(=O)Nc1ccc2cc1OCCOCCNc1ccn3ncc-2c3n1", "°C", -0.1],
  ["COc1cc(CNC(=O)Nc2ccc3cc2OCCOCCNc2ccn4ncc-3c4n2)ccc1F", "°C", 2.8],
  ["C[C@H](NC(=O)Nc1ccc2cc1OCCOCCNc1ccn3ncc-2c3n1)c1ccccc1", "°C", 0.1],
  ["O=C(NCc1cccc(Cl)c1)Nc1ccc2cc1OCCOCCNc1ccn3ncc-2c3n1", "°C", 0],
  ["O=C(NCc1ccccc1)Nc1ccc2cc1OCCOCCNc1ccn3ncc-2c3n1", "°C", 0.5],
  ["COc1ccccc1CNC(=O)Nc1ccc2cc1OCCOCCNc1ccn3ncc-2c3n1", "°C", 0.6],
  ["COc1cccc(CNC(=O)Nc2ccc3cc2OCCOCCNc2ccn4ncc-3c4n2)c1", "°C", 0.7],
  ["O=C(NCc1ccccc1Cl)Nc1ccc2cc1OCCOCCNc1ccn3ncc-2c3n1", "°C", -0.3],
  ["O=C(NCc1ccc(Cl)cc1F)Nc1ccc2cc1OCCOCCNc1ccn3ncc-2c3n1", "°C", 0.1],
  ["COc1ccc(CNC(=O)Nc2ccc3cc2OCCOCCNc2ccn4ncc-3c4n2)cc1", "°C", 1.2],
  ["Cc1ccc(F)cc1CNC(=O)Nc1ccc2cc1OCCOCCNc1ccn3ncc-2c3n1", "°C", 0.6],
  ["O=C(NCc1ccc(Cl)cc1)Nc1ccc2cc1OCCOCCNc1ccn3ncc-2c3n1", "°C", -0.2],
  ["CN1CCN(C(=O)Nc2ccc3cc2OCCOCCNc2ccn4ncc-3c4n2)CC1", "°C", 1.3],
  ["O=C(NCc1ccc(Cl)cc1Cl)Nc1ccc2cc1OCCOCCNc1ccn3ncc-2c3n1", "°C", 0]
]}
